B1: NF2 (merlin) isoform 7, human, full length (507 aa, lacks exons 2-3 = isoform-1 residues 39-121; exon-16 C-terminus), P35240-4 (parent)
chain: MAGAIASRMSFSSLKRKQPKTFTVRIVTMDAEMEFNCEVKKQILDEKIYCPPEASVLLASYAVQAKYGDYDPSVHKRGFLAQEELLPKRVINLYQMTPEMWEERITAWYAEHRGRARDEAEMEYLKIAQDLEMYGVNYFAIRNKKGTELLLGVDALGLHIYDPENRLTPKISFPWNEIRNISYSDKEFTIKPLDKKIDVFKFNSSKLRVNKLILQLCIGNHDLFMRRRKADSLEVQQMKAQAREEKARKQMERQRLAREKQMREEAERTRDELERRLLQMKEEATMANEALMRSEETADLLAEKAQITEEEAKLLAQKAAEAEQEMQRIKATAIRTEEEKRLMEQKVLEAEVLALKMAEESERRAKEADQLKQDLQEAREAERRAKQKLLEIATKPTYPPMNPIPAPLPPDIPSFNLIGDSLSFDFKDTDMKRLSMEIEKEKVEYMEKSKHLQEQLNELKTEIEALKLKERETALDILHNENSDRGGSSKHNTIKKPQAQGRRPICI

Variants of: B1
Assay: reverse yeast two-hybrid deep mutational scan (rY2H-seq): NF2 isoform 7 mutant library as bait mated with wild-type prey strains; selection on medium lacking adenine for non-interacting pairs; NextSeq paired-end sequencing; enrichment vs …
Conditions: with KDM1A (lysine-specific histone demethylase 1A; the table's label AOF2 is a gene synonym of KDM1A), O60341; yeast diploids after mating (RBait_S3 x RPrey_S3), 30 °C, selection for reporter genes on NB agar; human tyrosine kinase ABL2 co-expressed as the active kinase …; HIGHER = WEAKER BINDING (the opposite of display enrichments): higher = stronger loss of interaction: reverse Y2H selects yeast in which bait and prey do NOT interact (growth without adenine), so a …; hits-only table; scale: rY2H score; numbering: uniprot, sequence starts at 1
Measured parameter: enrichment
Answer with a bare number; do not write a unit.

Look over these answered cases.
# Variant description, Endpoint value
data = [
    ("R363L", 1.9),
    ("A406S", 14),
]

q: Supply recorded enrichment for `P407K` here.
a: 2.54

q: Give enrichment for `L156W`
a: 5.87

q: Consider the variant `A319E` . State its measured enrichment.
a: 5.63

q: Supply measured enrichment of `P163L` in your reply.
a: 5.95

q: Determine from records and report enrichment for `M225K`
a: 43

q: Read off the recorded enrichment for `A385L`
a: 1.94

q: In one line, give reported enrichment of the entry `I307L` .
a: 4.9

q: Please indicate enrichment recorded for `I404D`
a: 7.96

q: Read off the recorded enrichment for `E311L`
a: 5.65

q: Provide only the value of recorded enrichment for `L434R`
a: 1.37
